Values compiled from patent US7786083B2.

tested on: metastin receptors; experiment: Measurement of agonist activity by assaying changes in intracellular calcium ion level (FLIPR, Fluo-4 NW); assay type: cell-based, human; settings: specific activity of the EC50 of a test compound based on the EC50 of Metastin (45-54), metastin receptor expression CHO cells
*1 amine or outer side, *2 acyl side, *3 side chain or, on linkers, in order; H or OH if unused. Where a SMILES comes first, the peptide text is derived from it. [ ]: non-standard residue; d: D form. Glyψ(E-CHCH)Leu = CC(C)C[C@H](/C=C/CN[*:1])C(=O)[*:2]; Arg(Me) = CNC(=N)NCCC[C@H](N)C(=O)O; Ala(cPr) = N[C@@H](CC1CC1)C(=O)O; Cha = N[C@@H](CC1CCCCC1)C(=O)O
MEASURED METRIC: Specific Activity
// no unit, no text: just the number

{"COMPOUND": "CNC(=N)NCCC[C@H](NC(=O)[C@@H](/C=C/CNC(=O)[C@H](Cc1ccccc1)NC(=O)[C@@H](NC(=O)[C@H](CC(N)=O)NC(=O)[C@H](CCC(=O)O)NC(=O)[C@@H](Cc1ccc(O)cc1)NC(C)=O)[C@@H](C)O)CC(C)C)C(=O)N[C@@H](Cc1c[nH]c2ccccc12)C(N)=O [Compound No. 907] (Ac-[dY]ENTF[Glyψ(E-CHCH)Leu][Arg(Me)]W-NH2)", "TARGET ENTITY": "metastin receptors", "MEASURED METRIC": "Specific Activity", "TEST RESULT": 0.6}

Here's the next entry for you.
### Prompt Returns the measured Specific Activity for the input compound. Input: CNC(=N)NCCC[C@H](NC(=O)[C@H](CC1CC1)NC(=O)CNC(=O)[C@H](CC1CCCCC1)NC(=O)[C@@H](NC(=O)[C@H](CC(N)=O)NC(=O)[C@H](CCC(=O)O)NC(=O)[C@@H](Cc1ccc(O)cc1)NC(C)=O)[C@@H](C)O)C(=O)N[C@@H](Cc1c[nH]c2ccccc12)C(N)=O [Compound No. 895] (Ac-[dY]ENT[Cha]G[Ala(cPr)][Arg(Me)]W-NH2)
### Response 0.4

###

system: metastin receptors; assay: Measurement of agonist activity by assaying changes in intracellular calcium ion level (FLIPR, Fluo-4 NW); assay type: cell-based, human; settings: specific activity of the EC50 of a test compound based on the EC50 of Metastin (45-54), metastin receptor expression CHO cells
Where a SMILES comes first, the peptide text is derived from it. [ ]: non-standard residue; d: D form. Arg(Me) = CNC(=N)NCCC[C@H](N)C(=O)O; Hyp = O=C(O)[C@@H]1C[C@@H](O)CN1; αMeF = C[C@](N)(Cc1ccccc1)C(=O)O; Dap = NC[C@H](N)C(=O)O
MEASURED METRIC: Specific Activity
Answer using only a numeral; do not append any unit.

{"MOLECULE": "CNC(=N)NCCC[C@H](NC(=O)[C@H](CC(C)C)NC(=O)CNC(=O)[C@](C)(Cc1ccccc1)NC(=O)[C@@H](NC(=O)[C@H](CC(N)=O)NC(=O)[C@@H]1C[C@@H](O)CN1C(=O)[C@@H](Cc1ccc(O)cc1)NC(C)=O)[C@@H](C)O)C(=O)N[C@@H](Cc1c[nH]c2ccccc12)C(N)=O [Compound No. 869] (Ac-[dY][Hyp]NT[αMeF]GL[Arg(Me)]W-NH2)", "TEST RESULT": 3.8}

### Prompt Lab note: need Specific Activity for CNC(=N)NCCC[C@H](NC(=O)[C@H](CC(C)C)NC(=O)[C@H](CN)NC(=O)[C@H](Cc1ccccc1)NC(=O)[C@@H](NC(=O)[C@H](CC(N)=O)NC(=O)[C@@H]1C[C@@H](O)CN1C(=O)[C@@H](Cc1ccc(O)cc1)NC(C)=O)[C@@H](C)O)C(=O)N[C@@H](Cc1c[nH]c2ccccc12)C(N)=O [Compound No. 827] (Ac-[dY][Hyp]NTF[Dap]L[Arg(Me)]W-NH2) on metastin receptors, anyone have it?
### Response 1.3
